Experiment: Clearance in human liver microsomes
Format: ADME, Microsome
metric name: microsomal CLint (µL/min/mg)

(A) Clc1ccc(Sc2ccnc(-c3ccccn3)n2)cc1Cl
(B) Fc1ccc(-c2nccc(Sc3ccc(Cl)c(Cl)c3)n2)nc1
Qu. Please indicate which item has the smaller measured microsomal CLint: A versus B Label of pick, please.
Ans. A
(A: 90 µL/min/mg, B: 140 µL/min/mg)

* * *

Assay: Clearance in rat liver microsomes
Assay type: ADME, Microsome
metric name: microsomal CLint (µL/min/mg)

>>> value_measured("Fc1ccc(-c2nccc(Sc3ccc(Cl)c(Cl)c3)n2)nc1")
90
>>> value_measured("Clc1ccc(Sc2ccnc(-c3ccccn3)n2)cc1Cl")
120

* * *

Molecular target: Metabotropic glutamate receptor 5 (Homo sapiens, UniProt P41594)
Sequence (P41594 whole entry): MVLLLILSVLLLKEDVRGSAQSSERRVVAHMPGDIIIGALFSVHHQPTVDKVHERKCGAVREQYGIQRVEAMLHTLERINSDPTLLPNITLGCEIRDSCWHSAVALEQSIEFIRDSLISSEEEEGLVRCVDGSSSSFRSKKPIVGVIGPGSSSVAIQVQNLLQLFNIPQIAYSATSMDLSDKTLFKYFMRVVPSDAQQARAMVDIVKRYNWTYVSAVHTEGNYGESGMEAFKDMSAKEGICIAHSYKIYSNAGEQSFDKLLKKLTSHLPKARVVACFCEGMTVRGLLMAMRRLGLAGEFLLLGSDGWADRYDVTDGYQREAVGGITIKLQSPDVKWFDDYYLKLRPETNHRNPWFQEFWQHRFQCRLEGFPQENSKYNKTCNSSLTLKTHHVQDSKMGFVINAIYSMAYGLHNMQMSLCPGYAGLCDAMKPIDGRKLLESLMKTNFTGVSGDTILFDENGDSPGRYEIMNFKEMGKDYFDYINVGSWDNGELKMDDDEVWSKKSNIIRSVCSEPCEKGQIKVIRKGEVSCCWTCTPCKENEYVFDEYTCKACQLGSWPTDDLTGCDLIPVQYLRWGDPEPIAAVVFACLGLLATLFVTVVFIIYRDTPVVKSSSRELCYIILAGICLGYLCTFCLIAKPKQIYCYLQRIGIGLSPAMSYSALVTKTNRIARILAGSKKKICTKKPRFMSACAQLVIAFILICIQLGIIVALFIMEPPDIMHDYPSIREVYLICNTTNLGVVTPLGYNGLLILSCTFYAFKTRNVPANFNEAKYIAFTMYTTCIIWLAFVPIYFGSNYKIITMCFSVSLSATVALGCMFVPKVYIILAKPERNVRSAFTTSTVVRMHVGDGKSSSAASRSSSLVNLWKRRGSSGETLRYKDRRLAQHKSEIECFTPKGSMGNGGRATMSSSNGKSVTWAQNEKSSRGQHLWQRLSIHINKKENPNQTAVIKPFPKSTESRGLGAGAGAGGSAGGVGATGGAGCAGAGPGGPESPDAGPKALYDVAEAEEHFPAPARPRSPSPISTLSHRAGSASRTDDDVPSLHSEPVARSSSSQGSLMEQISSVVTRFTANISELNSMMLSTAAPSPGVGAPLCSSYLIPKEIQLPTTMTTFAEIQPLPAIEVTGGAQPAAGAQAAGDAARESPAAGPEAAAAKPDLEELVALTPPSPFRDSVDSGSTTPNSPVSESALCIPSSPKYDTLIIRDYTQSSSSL
Assay: Inhibition of glutamate-induced calcium influx in human mGluR5d by FLIPR
Format: functional
Conditions: read-out: IC50
metric name: IC50 (nM)

>>> value_measured("Cc1cccc(Sc2ccnc(-c3ccccn3)n2)c1")
2300
>>> value_measured("FC(F)(F)c1ccc(Sc2ccnc(-c3ccccn3)n2)cc1")
210
>>> value_measured("Clc1ccc(Sc2ccnc(-c3ccccn3)n2)cc1Cl")
90

(P) Clc1cccc(Sc2ccnc(-c3ccccn3)n2)c1
(Q) Fc1ccc(-c2nccc(Sc3ccc(Cl)c(Cl)c3)n2)nc1
(R) Clc1ccc(Sc2ccnc(-c3ccccn3)c2)cc1Cl
Qu. Ranking field: IC50; order: falling. Answer format: the labels, ordered as requested.
Ans. R, P, Q
(R: 2370 nM, P: 620 nM, Q: 80 nM)

(I) Cc1cc(Sc2ccc(Cl)cc2)nc(-c2ccccn2)n1
(II) FC(F)(F)c1cccc(Sc2ccnc(-c3ccccn3)n2)c1
Qu. Quick check, higher IC50 between I and II ? Kindly give the label for the entry you pick.
Ans. I

(A) Fc1ccc(Sc2ccnc(-c3ccccn3)n2)cc1F
(B) Cc1cccc(-c2nccc(Sc3ccc(Cl)c(Cl)c3)n2)n1
(C) Brc1cccc(Sc2ccnc(-c3ccccn3)n2)c1
Qu. Order field: IC50 | Direction: descending (largest first) Please list each label once, in the requested order.
Ans. C, A, B
(C: 2860 nM, A: 1520 nM, B: 390 nM)

* * *

Reported pIC50 by item:
Molecular target: Metabotropic glutamate receptor 5 (Homo sapiens, UniProt P41594)
Assay: Inhibition of glutamate-induced calcium influx in human mGluR5d by FLIPR
Assay type: functional
Conditions: read-out: IC50
pIC50: −log10 of the molar value.

// solved cases for pIC50 follow
>>> value_measured("CC(=O)N(c1ccc(Cl)cc1)c1ccnc(-c2ccccn2)n1")
"< 5.00"
>>> value_measured("Clc1ccc(Sc2ccnc(-c3ccccn3)n2)cc1")
6.49
>>> value_measured("Clc1ccc(Sc2ccnc(-c3cccnc3)n2)cc1")
"< 5.00"
>>> value_measured("OC(c1ccc(Cl)cc1)c1ccnc(-c2ccccn2)n1 (stereo not drawn)")
"< 5.52"

Qu. Can you share its pIC50? I mean this molecule: Clc1ccc(Nc2ccnc(-c3ccccn3)n2)cc1
Ans. < 5.00

Qu. Data request, read-out pIC50, for Clc1ccc(Cc2ccnc(-c3ccccn3)n2)cc1
Ans. < 5.00

Qu. Which pIC50 is reported for this molecule? Clc1ccc(Sc2ccnc(-c3ccncc3)n2)cc1
Ans. < 5.00

Qu. Look up pIC50: Clc1ccc(Oc2ccnc(-c3ccccn3)n2)cc1
Ans. < 5.00
